Values compiled from ChEMBL document CHEMBL6103589.

- Tested system: Urease subunit alpha/Urease subunit beta (Helicobacter pylori (strain ATCC 700392 / 26695) (Campylobacterpylori), UniProt P69996)
- Sequence (P69996 whole entry): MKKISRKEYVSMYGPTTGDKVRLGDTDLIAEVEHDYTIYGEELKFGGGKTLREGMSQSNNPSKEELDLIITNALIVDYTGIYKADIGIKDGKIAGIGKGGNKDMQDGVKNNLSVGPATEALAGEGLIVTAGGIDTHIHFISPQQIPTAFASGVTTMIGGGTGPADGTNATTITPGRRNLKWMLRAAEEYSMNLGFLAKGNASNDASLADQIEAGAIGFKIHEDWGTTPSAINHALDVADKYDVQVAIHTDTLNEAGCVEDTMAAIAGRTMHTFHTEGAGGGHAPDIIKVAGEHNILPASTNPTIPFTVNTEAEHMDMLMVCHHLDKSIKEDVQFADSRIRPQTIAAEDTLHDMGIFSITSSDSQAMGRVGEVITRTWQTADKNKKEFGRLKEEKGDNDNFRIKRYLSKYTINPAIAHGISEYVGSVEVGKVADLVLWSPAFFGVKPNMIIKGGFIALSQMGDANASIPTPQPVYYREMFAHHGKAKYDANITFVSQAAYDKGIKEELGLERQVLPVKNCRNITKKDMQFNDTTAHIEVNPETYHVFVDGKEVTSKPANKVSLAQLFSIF
- Sequence (P14916 whole entry, further chain): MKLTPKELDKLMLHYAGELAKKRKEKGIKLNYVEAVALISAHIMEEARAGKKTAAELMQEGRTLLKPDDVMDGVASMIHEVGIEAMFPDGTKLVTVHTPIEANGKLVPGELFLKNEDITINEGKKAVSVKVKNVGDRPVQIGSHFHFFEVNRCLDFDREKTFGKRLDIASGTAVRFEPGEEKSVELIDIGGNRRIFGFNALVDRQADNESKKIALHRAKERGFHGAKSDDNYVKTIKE
- Assay summary: Inhibition of Helicobacter pylori ATCC 43504 urease preincubated for 75 mins followed by urea addition and measured after 30 mins by ELISA
Below is a list of entries, each paired with its recorded IC50 value.

O=C(Oc1n[se]c2ccccc12)c1cccc(F)c1F    0.44 µM
O=c1c2ccccc2[se]n1-c1ccc(OC(F)(F)F)cc1    10.6 µM
O=c1c2ccccc2[se]n1-c1c(F)cccc1Cl    1.53 µM
Cc1ccc(C(=O)n2[se]c3ccccc3c2=O)cc1    3.75 µM

Suppose we examine the molecule Cc1ccc(-n2[se]c3ccccc3c2=O)cc1C(F)(F)F ; what IC50 value has been reported?
12.1 µM
